System: Platelet-derived growth factor receptor alpha (Homo sapiens), P16234 [D842V]
Sequence (P16234 whole entry D842V): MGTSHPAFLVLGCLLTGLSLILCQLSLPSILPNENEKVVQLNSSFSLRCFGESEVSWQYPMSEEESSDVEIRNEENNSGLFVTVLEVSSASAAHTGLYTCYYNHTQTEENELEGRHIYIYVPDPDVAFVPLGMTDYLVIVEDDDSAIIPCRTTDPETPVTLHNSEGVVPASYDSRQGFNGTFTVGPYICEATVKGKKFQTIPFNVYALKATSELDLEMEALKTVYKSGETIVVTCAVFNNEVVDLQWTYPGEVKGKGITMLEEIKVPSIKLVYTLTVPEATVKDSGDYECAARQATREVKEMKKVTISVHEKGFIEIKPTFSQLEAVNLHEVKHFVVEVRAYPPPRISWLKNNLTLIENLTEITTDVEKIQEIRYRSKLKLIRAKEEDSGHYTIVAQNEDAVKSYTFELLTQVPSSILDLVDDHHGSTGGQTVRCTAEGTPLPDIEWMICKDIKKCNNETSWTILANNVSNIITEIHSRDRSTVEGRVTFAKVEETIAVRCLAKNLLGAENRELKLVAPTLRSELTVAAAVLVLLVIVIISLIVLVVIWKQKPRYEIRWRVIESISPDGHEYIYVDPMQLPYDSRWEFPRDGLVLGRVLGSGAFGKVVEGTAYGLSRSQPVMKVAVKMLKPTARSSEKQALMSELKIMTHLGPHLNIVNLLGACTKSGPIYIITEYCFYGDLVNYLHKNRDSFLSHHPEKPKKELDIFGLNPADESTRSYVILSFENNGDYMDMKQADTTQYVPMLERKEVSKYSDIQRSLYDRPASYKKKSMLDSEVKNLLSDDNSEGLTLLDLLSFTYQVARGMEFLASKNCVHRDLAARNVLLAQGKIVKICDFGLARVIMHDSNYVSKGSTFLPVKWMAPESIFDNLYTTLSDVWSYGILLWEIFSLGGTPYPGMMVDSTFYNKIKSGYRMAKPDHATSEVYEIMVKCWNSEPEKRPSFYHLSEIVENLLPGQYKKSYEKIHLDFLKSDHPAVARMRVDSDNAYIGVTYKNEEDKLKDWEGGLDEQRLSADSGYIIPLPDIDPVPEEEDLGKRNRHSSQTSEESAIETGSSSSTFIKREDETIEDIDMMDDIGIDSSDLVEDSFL
Conditions: at 0.1 µM

compound | inhibition (%)
Fc1ccc(-c2ncn(C3CCNCC3)c2-c2ccnc(Oc3ccc(Oc4ccccc4)cc3)n2)cc1 | 0.69
Fc1ccc(-c2ncn(CCCN3CCOCC3)c2-c2ccncc2)cc1 | 2.37
CN(C)CCOc1ccc(-c2cc(-c3ccc4c(c3)CCC4=NO)c(-c3ccncc3)o2)cc1 | 0.21
Fc1ccc(-c2ncn(C3CCNCC3)c2-c2ccnc(Oc3ccc4c(c3)OCO4)n2)cc1 | 2.99
Cc1ccc(C(=O)NC2CCC2)cc1-c1ccc(C(=O)NCC2CC2)cc1 | 3.52
COc1cc2ncn(-c3cc(OCc4ccccc4C(F)(F)F)c(C(C)=O)s3)c2cc1OC | 3.21
NCc1ccc(-n2c(-c3nonc3N)nc3cnccc32)cc1 | 9
C[C@@H](Oc1cc(-n2cnc3ccc(OC4CCN(C)CC4)cc32)sc1C(N)=O)c1ccccc1Cl | 10.5
COc1ccc2cc(-c3c(-c4ccncc4)nc(-c4ccc(S(C)(=O)=O)cc4C)n3C)ccc2c1 | 2.7
Nc1nccc(-c2c(-c3ccc(F)cc3)ncn2C2CCC(O)CC2)n1 (stereo not given) | 2.7

----------
Item-by-item account of inhibition
Target: Casein kinase I isoform gamma-1 (Homo sapiens);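 also: reported as mean inhibition, part of GSK PKIS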
Details: at 0.1 µM
quantityMeasured: inhibition

itemSmiles | recordedValue
COc1ccc2cc(-c3c(-c4ccncc4)nc(-c4ccc(S(C)(=O)=O)cc4C)n3C)ccc2c1 | 3.35%
O=C1Nc2ccccc2/C1=C/Nc1ccc(-n2cncn2)cc1 | 4.33%
CN(C)CCCNc1nccc(-c2c(-c3ccc(F)cc3)nn3cc(C(F)(F)F)ccc23)n1 | -2.45%
C#Cc1cccc(Nc2ncnc3ccc(OCCCCNCCS(C)(=O)=O)cc23)c1 | 0.79%
CN1CCN(CCCNc2nc3ccc(Oc4ccc(NC(=O)Nc5cc(C(F)(F)F)ccc5F)cc4)cc3[nH]2)CC1 | -1.36%
COc1cc(Nc2ncc3c(C)nc(-c4cccc(Oc5ccccc5)c4)n3n2)cc(OC)c1OC | 1.67%

----------
Biological target: Serine/threonine-protein kinase D1 (Homo sapiens);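 also: each value is an averaged percent inhibition of PRKD1 kinase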
Sequence (whole entry): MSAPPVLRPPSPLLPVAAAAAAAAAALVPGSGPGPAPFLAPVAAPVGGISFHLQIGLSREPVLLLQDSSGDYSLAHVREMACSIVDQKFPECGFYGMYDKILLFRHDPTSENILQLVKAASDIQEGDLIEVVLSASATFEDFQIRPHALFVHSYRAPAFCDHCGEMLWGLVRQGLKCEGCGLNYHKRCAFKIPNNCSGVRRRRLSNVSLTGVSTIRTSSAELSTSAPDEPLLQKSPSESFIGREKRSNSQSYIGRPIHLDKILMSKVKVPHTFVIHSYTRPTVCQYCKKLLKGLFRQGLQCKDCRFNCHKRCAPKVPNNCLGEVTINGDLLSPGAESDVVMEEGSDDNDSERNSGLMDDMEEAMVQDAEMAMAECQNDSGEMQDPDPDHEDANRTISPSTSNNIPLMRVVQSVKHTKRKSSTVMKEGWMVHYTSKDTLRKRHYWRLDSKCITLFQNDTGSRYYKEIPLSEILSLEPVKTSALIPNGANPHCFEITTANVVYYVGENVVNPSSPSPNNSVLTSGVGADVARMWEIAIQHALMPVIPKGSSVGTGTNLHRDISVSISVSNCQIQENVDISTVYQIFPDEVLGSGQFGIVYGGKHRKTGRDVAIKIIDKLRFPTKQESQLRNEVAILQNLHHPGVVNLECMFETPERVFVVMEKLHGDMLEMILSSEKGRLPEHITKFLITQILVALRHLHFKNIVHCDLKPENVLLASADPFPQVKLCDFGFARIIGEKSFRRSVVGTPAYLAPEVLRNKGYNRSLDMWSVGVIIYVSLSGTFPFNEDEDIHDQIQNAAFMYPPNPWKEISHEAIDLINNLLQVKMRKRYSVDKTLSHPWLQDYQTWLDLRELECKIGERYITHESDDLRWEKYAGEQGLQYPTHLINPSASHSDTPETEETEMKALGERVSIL
Details: at 1 µM
Item-by-item account of inhibition

itemSmiles | testSystem | inhibition (%)
c1ccc(-c2n[nH]cc2-c2ccnc(-c3ccc(OCCN4CCOCC4)cc3)c2)nc1 | Serine/threonine-protein kinase D1 (Homo sapiens) | 66.3
COc1ccc2ncn(-c3cc(O[C@H](C)c4ccccc4Cl)c(C(N)=O)s3)c2c1 | Serine/threonine-protein kinase D1 (Homo sapiens) | -0.79
NC(=O)Cc1ccccc1Oc1nccc(-c2c(-c3ccc(F)cc3)ncn2C2CCNCC2)n1 | Serine/threonine-protein kinase D1 (Homo sapiens) | 8.87
Cc1ccc(C(=O)NC2CCC2)cc1-c1ccc(C(=O)NCC2CC2)cc1 | Serine/threonine-protein kinase D1 (Homo sapiens) | 3.61
C[C@@H](Oc1cc(-n2cnc3ccc(OCC4CCN(C)CC4)cc32)sc1C(N)=O)c1ccccc1Cl | Serine/threonine-protein kinase D1 (Homo sapiens) | 12
COc1cc(N2CCN(C(C)C)CC2)ccc1Nc1nc(Nc2ccc(F)cc2C(=O)NC[C@@H](O)CO)c2cc[nH]c2n1 | Serine/threonine-protein kinase D1 (Homo sapiens) | 13.4
CCN(CC)Cc1ccc(Nc2nccc(-c3cnn4ncccc34)n2)cc1 | Serine/threonine-protein kinase D1 (Homo sapiens) | 65.6
Fc1ccc(-c2c(-c3ccncc3)nc3n2CCS3)cc1 | Serine/threonine-protein kinase D1 (Homo sapiens) | 2.14
O=C1Nc2ccccc2/C1=C/Nc1ccc(-n2cncn2)cc1 | Serine/threonine-protein kinase D1 (Homo sapiens) | 7.88
COc1cc(Nc2ncc3c(C)nc(-c4cccc(C(F)(F)F)c4)n3n2)cc(OC)c1OC | Serine/threonine-protein kinase D1 (Homo sapiens) | 2.12
O=C(Nc1n[nH]c2cc(-c3cc(F)ccc3F)ccc12)C1CC1 | Serine/threonine-protein kinase D1 (Homo sapiens) | 3.73
NS(=O)(=O)c1ccc(Nc2cc(-c3ccc(O)c(F)c3)n[nH]2)cc1 | Serine/threonine-protein kinase D1 (Homo sapiens) | 4.59
CCc1cccc(CC)c1/C=C/c1cncc(C(=O)NC)c1 | Serine/threonine-protein kinase D1 (Homo sapiens) | 6.44
O=C(Nc1n[nH]c2nc(-c3ccc(O)cc3)c(Br)cc12)C1CC1 | Serine/threonine-protein kinase D1 (Homo sapiens) | 7.7
COc1cc2ncn(-c3cc(OCc4cccs4)c(C(N)=O)s3)c2cc1OC | Serine/threonine-protein kinase D1 (Homo sapiens) | -1.53
COc1cc(Nc2ncc3c(C)nc(-c4cccc(Oc5ccccc5)c4)n3n2)cc(OC)c1OC | Serine/threonine-protein kinase D1 (Homo sapiens) | 2.93
CS(=O)(=O)CCNCc1cc(-c2cc3c(Nc4ccc(OCc5cccc(F)c5)c(Cl)c4)ncnc3s2)cs1 | Serine/threonine-protein kinase D1 (Homo sapiens) | 8.12
CN(C)CCOc1ccc(-c2cc(-c3ccc4c(c3)CCC4=NO)c(-c3ccncc3)o2)cc1 | Serine/threonine-protein kinase D1 (Homo sapiens) | 0.79
c1ccc(Oc2ccc(Nc3ncc(-c4ccccc4)o3)cc2)cc1 | Serine/threonine-protein kinase D1 (Homo sapiens) | 4.49
NCc1ccc(-n2c(-c3nonc3N)nc3cnccc32)cc1 | Serine/threonine-protein kinase D1 (Homo sapiens) | 41
CN(C)c1ccc2c(c1)/C(=C/Nc1ccc(S(N)(=O)=O)cc1)C(=O)N2 | Serine/threonine-protein kinase D1 (Homo sapiens) | 7.78
CN(c1ccc(NC(=O)Nc2c(Cl)cccc2Cl)cc1)c1ccnc(Nc2cccc(CS(C)(=O)=O)c2)n1 | Serine/threonine-protein kinase D1 (Homo sapiens) | 1.18
O=C(Nc1n[nH]c2cc(-c3ccccc3)ccc12)C1CC1 | Serine/threonine-protein kinase D1 (Homo sapiens) | 5.64
CNC(=O)c1cncc(/C=C/c2c(C)cccc2C)c1 | Serine/threonine-protein kinase D1 (Homo sapiens) | -2.47
Fc1ccc(-c2ncn(C3CCNCC3)c2-c2ccnc(Oc3ccc(Oc4ccccc4)cc3)n2)cc1 | Serine/threonine-protein kinase D1 (Homo sapiens) | 8.65
Cc1nnc(-c2ccc(C)c(-c3ccc(C(=O)NCc4ccc(Cl)cc4)cc3)c2)o1 | Serine/threonine-protein kinase D1 (Homo sapiens) | 0.36
Clc1ccc(CNc2nccc(-c3cnn4ncccc34)n2)cc1 | Serine/threonine-protein kinase D1 (Homo sapiens) | 4.11
NC(=O)c1cc(-c2ccc(F)cc2)cc(-c2ccncc2)c1N | Serine/threonine-protein kinase D1 (Homo sapiens) | 3.31
CN(C)CCCNc1nccc(-c2c(-c3ccc(F)cc3)nn3cc(C(F)(F)F)ccc23)n1 | Serine/threonine-protein kinase D1 (Homo sapiens) | 0.04
NC(=O)c1ccc(Oc2nccc(-c3c(-c4ccc(F)cc4)ncn3C3CCNCC3)n2)cc1 | Serine/threonine-protein kinase D1 (Homo sapiens) | 6.71
CCS(=O)(=O)c1ccc(OC)c(Nc2ncc(-c3ccccc3Cl)o2)c1 | Serine/threonine-protein kinase D1 (Homo sapiens) | 1.41
Fc1ccc(-c2nc3n(c2-c2ccncc2)CCS3)cc1 | Serine/threonine-protein kinase D1 (Homo sapiens) | 4.16
Fc1ccc(-c2ncn(CCCN3CCOCC3)c2-c2ccncc2)cc1 | Serine/threonine-protein kinase D1 (Homo sapiens) | 2.24
C/C(Nc1ccc(S(N)(=O)=O)cc1)=C1/C(=O)Nc2ccccc21 | Serine/threonine-protein kinase D1 (Homo sapiens) | 15.9
COc1cc2ncn(-c3cc(OCc4ccccc4C(F)(F)F)c(C(C)=O)s3)c2cc1OC | Serine/threonine-protein kinase D1 (Homo sapiens) | 5.09
COc1ccc(-c2ccc3c(NC(=O)C4CC4)n[nH]c3n2)cc1 | Serine/threonine-protein kinase D1 (Homo sapiens) | 1.39
CCC(=O)Nc1ccc(C)c(-c2ccc(C(=O)NCC3CC3)cc2)c1 | Serine/threonine-protein kinase D1 (Homo sapiens) | 2.86
C[C@@H](Oc1cc(-n2cnc3ccc(OC4CCN(C)CC4)cc32)sc1C(N)=O)c1ccccc1Cl | Serine/threonine-protein kinase D1 (Homo sapiens) | 3.79
O=C1NC(=O)C(c2cccc(Cl)c2)=C1Nc1ccc(Cl)c(C(=O)O)c1 | Serine/threonine-protein kinase D1 (Homo sapiens) | 3.42
Cc1ccc(C(=O)NC(C)C)cc1-c1ccc(C(=O)NCC2CC2)cc1 | Serine/threonine-protein kinase D1 (Homo sapiens) | -3.57
CCS(=O)(=O)c1ccc(OC)c(Nc2ncc(-c3cccc(-c4ccccc4F)c3)o2)c1 | Serine/threonine-protein kinase D1 (Homo sapiens) | 1.23
